All values here come from ChEMBL document CHEMBL1151336.

# protocol-details: Toxicity in orally dosed mouse
# Format: organism-based
# assay-setup: in vivo, po
reported-metric: LD50 (mg/kg)
Report as a plain number; the unit mg/kg is understood.

Query :: // lookup LD50 for CC(=O)c1cccc(N[C@H]2[C@H](N)[C@@](NC(=O)N(C)C)([C@H](C)O)[C@@](C)(O)[C@@]2(O)COC(=O)c2c(C)cccc2O)c1 [PACTAMYCIN]
Result :: 10.7
